Target chain: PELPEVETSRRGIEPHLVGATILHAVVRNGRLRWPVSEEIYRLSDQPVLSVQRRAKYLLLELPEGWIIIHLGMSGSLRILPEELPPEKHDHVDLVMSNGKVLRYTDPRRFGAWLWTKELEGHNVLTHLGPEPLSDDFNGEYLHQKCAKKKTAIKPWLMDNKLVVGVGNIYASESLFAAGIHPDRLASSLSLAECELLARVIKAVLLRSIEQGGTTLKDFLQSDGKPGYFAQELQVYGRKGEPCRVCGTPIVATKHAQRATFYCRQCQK
recorded endpoint: pIC50
Conceptually, pIC50 converts a concentration in mol/L into minus its log10.

stdin: Reported pIC50, compound O=c1[nH]c2[nH]c(=S)[nH]c(=O)c2[nH]1 [Inh#4, Mercapto-6,8-purinediol] : ____
stdout: 4.15
